// provenance: ChEMBL document CHEMBL5154721

- tested_target: UniProt:O15379
- Sequence (O15379 whole entry): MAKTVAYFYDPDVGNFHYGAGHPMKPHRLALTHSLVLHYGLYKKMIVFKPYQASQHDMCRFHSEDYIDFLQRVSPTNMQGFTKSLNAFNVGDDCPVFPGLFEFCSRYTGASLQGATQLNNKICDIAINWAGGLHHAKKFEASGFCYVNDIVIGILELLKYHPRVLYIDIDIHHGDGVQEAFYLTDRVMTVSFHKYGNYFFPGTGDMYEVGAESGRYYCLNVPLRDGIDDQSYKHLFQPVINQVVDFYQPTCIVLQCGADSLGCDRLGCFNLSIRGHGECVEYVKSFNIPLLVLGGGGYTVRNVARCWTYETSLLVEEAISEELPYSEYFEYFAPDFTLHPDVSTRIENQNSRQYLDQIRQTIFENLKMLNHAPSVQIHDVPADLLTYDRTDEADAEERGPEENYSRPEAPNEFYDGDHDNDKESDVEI
- assay_remarks: Inhibition of full length human recombinant HDAC3 expressed in Sf9 baculovirus system using FAM-labeled acetylated peptide as substrate by measuring fluorescence intensity by EMSA method
pIC50: −log10 of the molar value.
readout_type: pIC50

structure: O=C(NO)c1ccc(CN(C2CCCC2)S(=O)(=O)c2cc(F)c(F)c(F)c2F)cc1
value_observed: < 6.00

structure: CC(C)N(Cc1ccc(C(=O)NO)cn1)S(=O)(=O)c1cc(F)c(F)c(F)c1F
value_observed: < 6.00

structure: CC(C)CN(Cc1ccc(C(=O)NO)cc1)S(=O)(=O)c1cc(F)c(F)c(F)c1F
value_observed: < 6.00

structure: COCCN(Cc1ccc(C(=O)NO)cc1)S(=O)(=O)c1cc(F)c(F)c(F)c1F
value_observed: < 6.00

structure: O=C(NO)c1ccc2c(c1)CCN(S(=O)(=O)c1cc(F)c(F)c(F)c1F)C2
value_observed: < 6.00

structure: CC(C)N(Cc1ccc(CC(=O)NO)cc1)S(=O)(=O)c1cc(F)c(F)c(F)c1F
value_observed: < 6.00

structure: CC(C)N(Cc1ccc(C(=O)NO)cc1)Cc1cc(F)c(F)c(F)c1F
value_observed: 6.05

structure: COc1cc(C(=O)NO)ccc1CN(C(C)C)S(=O)(=O)c1cc(F)c(F)c(F)c1F
value_observed: < 6.00
